The measured values listed here are drawn from PubChem BioAssay AID488969.

Molecular target: Metabotropic glutamate receptor 8 (Rattus norvegicus)
Experiment: mGluR8 Gi/Go-coupled signaling modulation – cell-based, rat, thallium flux, HTS, primary screen (AID 488969)
Settings: HEK293 rat mGluR8, GIRK (G protein-gated inwardly rectifying potassium channel) thallium flux, FluoZin2; at 10 µM; stronger effect = higher value; submaximal glutamate (EC20) added with thallium
Over roughly 110,000 compounds, “z-score” has its median near -0.1; the highest 2% begin near 2. What follows is part of a selection rich in the highest values, with near analogues and random picks from the rest.
Observation Type: z-score

compound="O=[N+]([O-])c1ccc(OCC(O)CN2CCN(c3ccccc3F)CC2)cc1 (configuration not stated)" observation_type=z-score quantitative_result=-0.357
compound=COc1ccc(Oc2nc(C(F)(F)F)nc3ccccc23)cc1 observation_type=z-score quantitative_result=-0.576
compound=CC1(C)CC(=S)Nc2ccccc2S1 observation_type=z-score quantitative_result=7.97
compound=CCCC(=O)OCCNc1cc(SCCC(=O)OC)c2nonc2c1[N+](=O)[O-] observation_type=z-score quantitative_result=-0.658
compound="Cn1c(NCC(O)CO)nc2c1c(=O)n(Cc1ccc(Cl)c(Cl)c1)c(=O)n2C (configuration not stated)" observation_type=z-score quantitative_result=-0.188
compound="COc1ccc(C(C(=O)NC2CCCCC2)N(CC2CCCO2)C(=O)C2COc3ccccc3O2)cc1OC (configuration not stated)" observation_type=z-score quantitative_result=-0.167
compound=CCc1nnc(NC(=O)c2cc(-c3ccccc3)nn2-c2ccccc2)s1 observation_type=z-score quantitative_result=0.27
compound="Cc1ccc(N(C(=O)c2csnn2)C(C(=O)NC(C)(C)C)c2ccncc2)cc1 (configuration not stated)" observation_type=z-score quantitative_result=-0.134
compound=COc1ccc(NC(=O)CSc2nc3ncccc3[nH]2)cc1OC observation_type=z-score quantitative_result=-0.426
compound=S=C(Nc1ccccc1)c1ccccn1 observation_type=z-score quantitative_result=2.52
compound=Cc1ccc(NC(=O)c2cc(-c3ccccc3)nn2-c2ccccc2)cc1 observation_type=z-score quantitative_result=1.28
compound=Cc1cccc(NC(=S)NNC(=O)c2csc(C(C)C)c2)c1 observation_type=z-score quantitative_result=8.28
compound="CC1CCCCC1NC(=O)Cn1nnc(-c2ccc(Cl)cc2)n1 (configuration not stated)" observation_type=z-score quantitative_result=0.119
compound="CC1CSc2ccccc2NC1=S (configuration not stated)" observation_type=z-score quantitative_result=3.72
compound=Cn1c(=O)c2c(O)cc(=O)[nH]c2n(-c2ccccc2)c1=O observation_type=z-score quantitative_result=-0.00781
compound=CCn1c(COc2ccc(C)cc2)nnc1SCc1nc2ccccc2[nH]1 observation_type=z-score quantitative_result=-0.0293
compound=O=C(Nc1ccccc1)Nc1ccccn1 observation_type=z-score quantitative_result=0.139
compound=COc1cc(/C=N/O)cc(Br)c1OCC(=O)NCc1ccccc1 observation_type=z-score quantitative_result=0.215
compound=CCC(=O)Nc1ccc(N2CCN(Cc3ccccc3)CC2)cc1 observation_type=z-score quantitative_result=0.042
compound="CC(C)(C)NC(=O)C(c1ccncc1)N(C(=O)c1csnn1)c1ccccc1 (configuration not stated)" observation_type=z-score quantitative_result=6.21
compound="Cc1cccc(N(C(=O)c2csnn2)C(C(=O)NC(C)(C)C)c2ccncc2)c1 (configuration not stated)" observation_type=z-score quantitative_result=-0.134
compound=Cc1ccc(C(=O)Oc2coc(CSc3nnc(NC(=O)C4CC4)s3)cc2=O)cc1C observation_type=z-score quantitative_result=0.84
compound=CCOC(=O)C1CCN(c2c(Nc3ccc4c(c3)OCCO4)c(=O)c2=O)CC1 observation_type=z-score quantitative_result=-0.277
compound=CN(Cc1nc(-c2ccncc2)no1)S(=O)(=O)c1ccccc1 observation_type=z-score quantitative_result=0.00952
compound=Cc1sc2ncnc(N=Nc3c(O)[nH]c4ccccc34)c2c1C observation_type=z-score quantitative_result=-0.0288
compound=Cc1cc(C)nc(SCC(=O)NCc2ccco2)n1 observation_type=z-score quantitative_result=0.232
compound=O=C(Cn1cccc1)N1CCN(c2ccc(F)cc2)CC1 observation_type=z-score quantitative_result=-0.241
compound=O=C(NC1CCCCC1)C12CC3CC(C1)CC(n1cncn1)(C3)C2 observation_type=z-score quantitative_result=-0.163
compound=Cc1csc(SCC(=O)Nc2ncc(Cl)c(C)c2Cl)n1 observation_type=z-score quantitative_result=0.185
compound=CCC(CC)C(=O)Nc1ccc(Nc2ccccc2)cc1 observation_type=z-score quantitative_result=-0.165
compound="CC1CC(=S)Nc2ccccc2N1Cc1ccccc1 (configuration not stated)" observation_type=z-score quantitative_result=1.32
compound="COc1cc(C2CC(=O)c3c(ccc4ccccc34)N2)ccc1O (configuration not stated)" observation_type=z-score quantitative_result=0.11
compound=Cc1ccc(-n2c(CSc3nc(C)cc(C)n3)nnc2SCC(=O)NCc2ccco2)cc1 observation_type=z-score quantitative_result=8.78
compound=Cc1cc(C(=O)NNC(=S)NCC(C)C)cs1 observation_type=z-score quantitative_result=0.377
compound=Cc1ccc(C)c(NC(=O)c2cc(-c3ccccc3)nn2-c2ccccc2)c1 observation_type=z-score quantitative_result=2.08
compound="O=C(O)C1CC=CCC1C(=O)NCc1ccc2c(c1)OCO2 (configuration not stated)" observation_type=z-score quantitative_result=-0.618
compound=O=c1[nH]c2cccnc2n1Cc1ccccc1 observation_type=z-score quantitative_result=-0.166
compound="CC1CCCN(CC(O)COc2ccc(Cl)cc2)C1 (configuration not stated)" observation_type=z-score quantitative_result=0.149
compound=Cc1ccc(NC(=O)c2cc(-c3ccccc3)nn2-c2ccccc2)c(Br)c1 observation_type=z-score quantitative_result=0.496
compound="Cc1ccc(-c2nnn(CC(=O)NC3CC4CCC3C4)n2)cc1 (configuration not stated)" observation_type=z-score quantitative_result=5.1
compound=CCOC(=O)c1nnc(-c2ccccc2)nc1Oc1ccccc1Cl observation_type=z-score quantitative_result=-0.346
compound="CC1CC(=S)Nc2ccccc2S1 (configuration not stated)" observation_type=z-score quantitative_result=1.11
compound="CC1Cc2ccccc2N1C(=O)CCNS(=O)(=O)c1cccc2nsnc12 (configuration not stated)" observation_type=z-score quantitative_result=0.906
compound=O=C(Cc1cccs1)Nc1ccc(Cl)cc1 observation_type=z-score quantitative_result=0.318
compound=Cc1ccc(C)c(NC(=S)NNC(=O)c2csc(C(C)C)c2)c1 observation_type=z-score quantitative_result=12
compound=O=C(COC(=O)[C@H](Cc1c[nH]c2ccccc12)NC(=O)c1ccc(Cl)cc1)Nc1ccc2c(c1)OCO2 observation_type=z-score quantitative_result=0.558
compound=CCOC(=O)NCc1ccc(S(=O)(=O)Nc2ccc(C)cc2)cc1 observation_type=z-score quantitative_result=0.21
